Tested on: HeLa
Assay: Cytostatic activity against human HeLa cells after 72 hrs by FCR-based colorimetric method
Format: functional
Conditions: read-out: ED50 (the source's name)
VALUE TYPE: EC50 (µg/mL)

Some compounds with known EC50 results, for comparison:
CCOC(=O)c1cc(CBr)nn1[C@@H]1OC[C@@H](OC(C)=O)[C@@H](OC(C)=O)[C@H]1OC(C)=O: 2
CCOC(=O)c1cc(CBr)nn1[C@@H]1O[C@H](COC(C)=O)[C@@H](OC(C)=O)[C@H]1OC(C)=O: 2.5

(A) CC(=O)OC[C@H]1O[C@@H](n2nc(CBr)cc2C(N)=O)[C@H](OC(C)=O)[C@@H](OC(C)=O)[C@@H]1OC(C)=O
(B) CC(=O)OC[C@H]1O[C@@H](n2nc(C(N)=O)cc2CBr)[C@H](OC(C)=O)[C@@H]1OC(C)=O
Q: So which one has the bigger EC50 here, A or B ? Give the label of your selection.
Ans: A
(A: 4 µg/mL, B: 2 µg/mL)
